Reference source: the supplement of paper PMC10567573

B1: STK38L (parent)
chain: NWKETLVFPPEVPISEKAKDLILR

# Variants of: B1
# Measurement Notes: protein stability index of a GFP-peptide fusion (GPS, HEK-293T) (PSI 1-6); higher = more stable;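 also: lentivirally expressed fusions sorted by FACS into six bins by GFP to DsRed ratio, PSI derived from sequencing read proportions per bin multiplied by bin number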
# Condition Set: c terminus: a fixed tail appended
protein stability index by entry:

Consider the reported protein stability index for these variants:
1) NWKETLVFPPEVDISEKAKDLILR ... 3.4
2) NWKETLVFPPMVPISEKAKDLILR ... 2.39
3) NWKETLVFPPEVPISESAKDLILR ... 4.07

Dear colleague, I am looking for the recorded protein stability index of the following variant: NWKERLVFPPEVPISEKAKDLILR
3.12

Now the same for NWKETLVFPPEVPISEKALDLILR
1.49

What do we get for NWKETLVFPPEVHISEKAKDLILR ?
2.9

And the next one, SWKETLVFPPEVPISEKAKDLILR ?
4.02

Same for NWKETLVFPPEVTISEKAKDLILR
2.44

How about this variant: NWKETLVFPPEVPISQKAKDLILR
2.43

Request: NWKETLVFPPEVPISEKAFDLILR
1.95

Can you check NWKETLVFPPEVPISIKAKDLILR next?
2.14

What do you get for WWKETLVFPPEVPISEKAKDLILR ?
1.78

Proceed to NWKEVLVFPPEVPISEKAKDLILR
2.61

Could you do the same for NWKETLVFPPEVPWSEKAKDLILR , please?
2.05

Consider next the variant NRKETLVFPPEVPISEKAKDLILR in the same way.
3.39

Same read-out for NWKETTVFPPEVPISEKAKDLILR ?
3.46
